Attribution: patent US20230219965A1

Quick reference for half-life at 1 μM among some compounds
# Assay Comment: Liver microsomal metabolic stability, rat liver microsomes (RLM)
# Cond: rat, liver microsomes, t1/2 (min) in RLM, 1 μM compound, 1 mg/mL microsomes, NADPH

These recorded examples may help you get a feel for the data.
CC(C)n1ncc(Cl)c1-c1cc2n(n1)CCC(=O)N2Cc1ccc(-c2ncccc2N(C)C)cc1 :: < 25 min
CCn1cc(C(F)(F)F)nc1-c1ccc(CN2C(=O)CCn3nc(-c4c(C)cnn4C(C)C)cc32)cc1 :: < 25 min
CCn1cc(C(F)(F)F)nc1-c1ccc([C@H](C)N2C(=O)CCn3nc(-c4c(OC)ncnc4C4CC4)nc32)cc1F :: > 25 min
CCn1cc(C(F)(F)F)nc1-c1ccc(OC2CCCn3nc(-c4c(Cl)cnn4C(C)C)cc32)cc1 (stereo not drawn) :: > 25 min

Ask | Which half-life at 1 μM is reported for this compound? COc1cc(CN2C(=O)CCn3nc(-c4c(Cl)cnn4C(C)C)cc32)ccc1-c1nc(C(F)(F)F)cn1C(C)C
Reply | > 25 min

Ask | And CCn1cc(C(F)(F)F)nc1-c1ccc(CN2C(=O)CCn3nc(-c4c(OC)ncnc4C4CC4)cc32)cc1 ?
Reply | > 25 min

Ask | Input CC(C)n1cc(C(F)(F)F)nc1-c1ccc(CN2C(=O)CCn3nc(-c4c(Cl)cnn4C(C)C)nc32)cc1
Reply | > 25 min

Ask | Please do the same for CCn1cc(C(F)(F)F)nc1-c1ccc(NC2CCCn3nc(-c4c(Cl)cnn4C(C)C)cc32)cc1F (stereo not drawn) as well.
Reply | > 25 min

Ask | Cool, now CCn1cc(C(F)(F)F)nc1-c1c(Cl)cc(CN2C(=O)CCn3nc(-c4c(OC)ncnc4C4CC4)cc32)cc1OC
Reply | < 25 min

Ask | Then what about the compound CCn1cc(C(F)(F)F)nc1-c1ccc(CN2C(=O)CCn3nc(-c4c(OC)ncnc4C4CC4)cc32)cc1F ?
Reply | > 25 min

Ask | How about CCn1cc(C(F)(F)F)nc1-c1ccc(CN2C(=O)CCn3nc(-c4c(Cl)cnn4C(C)C)nc32)cc1F ?
Reply | > 25 min

Ask | Same read-out for CCn1cc(C(F)(F)F)nc1-c1ccc(CC2c3cc(-c4c(OC)ncnc4C4CC4)nn3CCN2C)cc1 (stereo not drawn) ?
Reply | < 25 min

Ask | What about this compound? Cc1cnn(C(C)C)c1-c1cc2n(n1)CCC(=O)N2Cc1ccc(-c2nc(C(F)(F)F)c[nH]2)cc1
Reply | < 25 min

Ask | Next compound: CCn1cc(C(F)(F)F)nc1-c1ccc(Cn2c(=O)ccn3nc(-c4c(OC)ncnc4C4CC4)cc23)cc1
Reply | > 25 min

Ask | Also CC(C)n1ncc(Cl)c1-c1cc2n(n1)CCC(=O)N2Cc1ccc(-c2nc(C(F)(F)F)cn2C)c(F)c1 ?
Reply | < 25 min

====

This listing pairs molecules with measured half-life at 1 μM.
# Assay Comment: Liver microsomal metabolic stability, rat liver microsomes (RLM)
# Cond: rat, liver microsomes, t1/2 (min) in RLM, 1 μM compound, 1 mg/mL microsomes, NADPH

COc1ncnc(C2CC2)c1-c1nn2c(c1Cl)N(Cc1ccc(-c3nc(C(F)(F)F)cn3C)cc1)C(=O)CC2 [Example 33] :: > 25 min

Ask | Tell me the measured half-life at 1 μM of CCn1cc(C(F)(F)F)nc1-c1ccc([C@@H](C)N2C(=O)CCn3nc(-c4c(Cl)cnn4C(C)C)nc32)cc1F [Example 182] , please.
Reply | < 25 min

Ask | How about CCn1cc(C(F)(F)F)nc1-c1ccc(C(C)n2c(=O)ccn3nc(-c4c(OC)ncnc4C4CC4)nc23)cc1 (stereo not shown) [Example 340] ?
Reply | > 25 min

Ask | Try the molecule CCn1cc(C(F)(F)F)nc1-c1ccc([C@H](C)N2CCCn3nc(-c4c(Cl)cnn4C(C)C)cc32)cc1 (single isomer, unassigned) [Example 67]
Reply | < 25 min

Ask | Repeat for the following molecule: Cc1cnn(C(C)C)c1-c1cc2n(n1)C(C)CC(=O)N2Cc1ccc(-c2nc(C(F)(F)F)cn2C)cc1 (stereo not shown) [Example 36]
Reply | < 25 min

Ask | Same thing, different molecule: Cc1cnn(C(C)C)c1-c1cc2n(n1)CCC(=O)N2Cc1ccc(-n2nc(C(F)(F)F)cc2C)cc1 [Example 10]
Reply | < 25 min

Ask | Record: CC(C)n1cc(C(F)(F)F)nc1-c1ccc(C(N2CCCn3nc(-c4c(Cl)cnn4C(C)C)cc32)C(F)(F)F)cc1F (stereo not shown) [Example 371]
Reply | < 25 min
